test system: gastric acid secretion; assay: animal or person; format: in vivo, dog; details: Canis lupus familiaris, iv, read-out: Inhibitory effect against gastric acid secretion (%)
Counter-ions that a name gives are not always drawn.
Provide the reported inhibition in vivo at 0.8 mg/kg of each item.
Answer format reminder: number followed by unit.

Inquiry: For Cc1c(OCC2OCC3(CCC3)CO2)ccnc1C[S+]([O-])c1nc2ccccc2[nH]1 (centres unmarked) [Example 85, sodium salt] , what is its reported inhibition in vivo at 0.8 mg/kg?
Reply text: 100%

Inquiry: Query (molecule): Cc1c(OCC2COCO2)ccnc1C[S+]([O-])c1nc2ccccc2[nH]1 (centres unmarked) [Example 87, sodium salt] ; field requested: inhibition in vivo at 0.8 mg/kg
Reply text: 100%

Inquiry: Could you share which inhibition in vivo at 0.8 mg/kg value was measured for Cc1cnc(C[S+]([O-])c2nc3cc(F)ccc3[nH]2)c(C)c1OCC1COC(C)(C)OC1 (centres unmarked) [Example 56, sodium salt] ?
Reply text: 84%

Inquiry: Any idea what its inhibition in vivo at 0.8 mg/kg is? The molecule is [O-][S+](Cc1cc(OC2COC3(CCC3)OC2)ccn1)c1nc2ccccc2[nH]1 (centres unmarked) [Example 83, sodium salt]
Reply text: 71%

Inquiry: For the molecule shown here, Cc1c(OCC2OCC(F)(F)CO2)ccnc1C[S+]([O-])c1nc2ccccc2[nH]1 (centres unmarked) [Example 46, sodium salt] , give the reported inhibition in vivo at 0.8 mg/kg.
Reply text: 100%

Inquiry: What value of measured inhibition in vivo at 0.8 mg/kg is listed for CC1(CCOc2ccnc(C[S+]([O-])c3nc4ccccc4[nH]3)c2)OCC2(CO1)OCCO2 (centres unmarked) [Example 75, sodium salt] ?
Reply text: 85%

Inquiry: Which inhibition in vivo at 0.8 mg/kg is listed for Cc1c(OCC2OCC(C)(C)CO2)ccnc1C[S+]([O-])c1nc2ccccc2[nH]1 (centres unmarked) [Example 1, sodium salt] ?
Reply text: 100%

Inquiry: Name the recorded inhibition in vivo at 0.8 mg/kg for Cc1c(OCC2OCC3(CC3)CO2)ccnc1C[S+]([O-])c1nc2ccccc2[nH]1 (centres unmarked) [Example 2, sodium salt] .
Reply text: 100%
